Values were extracted from ChEMBL document CHEMBL1142310.

Tested on: Human immunodeficiency virus 1
experiment_summary: Antiviral activity against HIV1 infected MT4 cells in presence of 10% FBS
Assay type: functional
condition_notes: Human immunodeficiency virus 1, MT4
Mark each entry True if its IC95 sits below 500 nM, and False for all others.

compound | label_class
CNC(=O)c1cccc(C2CN(C)C(=O)c3c(O)c(C(=O)NCc4ccc(F)cc4)nn32)c1 (stereo not given) | False
CN1CC(c2cccnc2)n2nc(C(=O)NCc3ccc(F)cc3)c(O)c2C1=O (stereo not given) | True
CNC(=O)c1nn2c(c1O)C(=O)N(Cc1ccc(F)cc1)CC2c1ccccc1 (stereo not given) | False
CN1CC(c2ccccc2)n2nc(C(=O)NCc3ccc(F)cc3)c(O)c2C1=O (stereo not given) | True
CNC(=O)c1cc(F)ccc1CNC(=O)c1nn2c(c1O)C(=O)N(C)C[C@H]2c1ccccc1 | True
CC(C)C1CN(C)C(=O)c2c(O)c(C(=O)NCc3ccc(F)cc3)nn21 (stereo not given) | True
CNC(=O)c1nn2c(c1O)C(=O)N(Cc1ccc(F)cc1)CC2 | False
CN1CCn2nc(C(=O)NCc3ccc(F)cc3)c(O)c2C1=O | False
CNC(=O)c1cc(F)ccc1CNC(=O)c1nn2c(c1O)C(=O)N(C)C[C@@H]2c1ccccc1 | True

---

Entries and their IC50
experiment_summary: Inhibition of HIV1 integrase strand transfer activity
Parameters: species or system Human immunodeficiency virus 1

molecule | bound_sign | IC50 / µM
CNC(=O)c1nn2c(c1O)C(=O)N(Cc1ccc(F)cc1)CC2 | = | 0.04
CNC(=O)c1nn2c(c1O)C(=O)N(Cc1ccc(F)cc1)CC2c1ccccc1 (stereo not given) | = | 0.13
CN1C(=O)c2c(O)c(C(=O)NCc3ccc(F)cc3)nn2CC1c1ccccc1 (stereo not given) | = | 0.11
CN1CC(c2cccnc2)n2nc(C(=O)NCc3ccc(F)cc3)c(O)c2C1=O (stereo not given) | ≤ | 0.01
CC(C)C1CN(C)C(=O)c2c(O)c(C(=O)NCc3ccc(F)cc3)nn21 (stereo not given) | = | 0.02

---

experiment_summary: Inhibition of HIV1 integrase strand transfer activity
Design: species or system Human immunodeficiency virus 1
Label condition met when IC50 is strictly below 70 nM; at or above that, label condition not met.

molecule | label_class
CNC(=O)c1cc(F)ccc1CNC(=O)c1nn2c(c1O)C(=O)N(C)C[C@H]2c1ccccc1 | condition met
CN1CC(c2csc(N)n2)n2nc(C(=O)NCc3ccc(F)cc3)c(O)c2C1=O (stereo not given) | condition met
CN1CC(c2ccccc2)n2nc(C(=O)NCc3ccc(F)cc3)c(O)c2C1=O (stereo not given) | condition met
CNC(=O)c1cccc(C2CN(C)C(=O)c3c(O)c(C(=O)NCc4ccc(F)cc4)nn32)c1 (stereo not given) | condition met
CN1CCCn2nc(C(=O)NCc3ccc(F)cc3)c(O)c2C1=O | condition not met
CC1CN(C)C(=O)c2c(O)c(C(=O)NCc3ccc(F)cc3)nn21 (stereo not given) | condition met
CN1CCn2nc(C(=O)NCc3ccc(F)cc3)c(O)c2C1=O | condition met
CC1Cn2nc(C(=O)NCc3ccc(F)cc3)c(O)c2C(=O)N1C (stereo not given) | condition met
CNC(=O)c1cc(F)ccc1CNC(=O)c1nn2c(c1O)C(=O)N(C)C[C@@H]2c1ccccc1 | condition not met
CN1CCn2cc(C(=O)NCc3ccc(F)cc3)c(O)c2C1=O | condition not met
